molecular target: B. taurus (heart) complex I (Bos taurus, UniProt P03887+P17694+P42026); test: biochemical; assay type: biochemical; details: Dose 37.5 µM; read-out: B. taurus mitochondrial complex I activity
Sequence (P03887 whole entry): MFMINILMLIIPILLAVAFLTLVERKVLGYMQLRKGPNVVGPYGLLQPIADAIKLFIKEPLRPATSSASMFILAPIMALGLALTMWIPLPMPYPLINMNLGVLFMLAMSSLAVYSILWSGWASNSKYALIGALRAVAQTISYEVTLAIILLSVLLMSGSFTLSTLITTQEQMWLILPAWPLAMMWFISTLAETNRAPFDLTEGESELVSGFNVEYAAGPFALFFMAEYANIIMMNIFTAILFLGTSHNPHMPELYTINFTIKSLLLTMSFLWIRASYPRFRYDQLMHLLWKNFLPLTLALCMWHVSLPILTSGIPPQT
Sequence (P17694 34-463): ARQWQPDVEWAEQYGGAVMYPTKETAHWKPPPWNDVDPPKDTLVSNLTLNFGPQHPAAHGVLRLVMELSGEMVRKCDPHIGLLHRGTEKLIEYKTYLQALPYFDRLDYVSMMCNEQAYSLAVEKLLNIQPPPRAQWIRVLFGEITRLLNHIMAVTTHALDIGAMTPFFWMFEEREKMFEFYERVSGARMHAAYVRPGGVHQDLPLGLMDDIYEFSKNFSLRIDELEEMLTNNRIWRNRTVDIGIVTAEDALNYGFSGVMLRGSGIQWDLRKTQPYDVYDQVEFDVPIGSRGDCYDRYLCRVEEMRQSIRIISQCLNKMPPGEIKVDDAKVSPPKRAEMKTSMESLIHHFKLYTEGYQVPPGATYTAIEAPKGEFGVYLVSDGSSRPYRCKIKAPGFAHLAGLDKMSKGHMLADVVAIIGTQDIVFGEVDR
Sequence (P42026 38-216): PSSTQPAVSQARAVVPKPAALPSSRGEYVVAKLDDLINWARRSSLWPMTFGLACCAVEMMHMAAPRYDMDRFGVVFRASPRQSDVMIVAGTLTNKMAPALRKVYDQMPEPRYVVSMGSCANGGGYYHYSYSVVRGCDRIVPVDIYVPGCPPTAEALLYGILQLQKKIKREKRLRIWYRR
parameter: activity at 37.5 µM (%)

INSERT INTO assay_data (smiles, experimentalresult) VALUES
  ('Clc1ccc(SCCCCn2cnc3ccccc32)cc1', 5.44),
  ('Nc1nc2ccccc2n1Cc1ccc(Cl)cc1', 0.42),
  ('CCCOc1ccc(Cn2cnc3ccccc32)cc1', 1.26);

###

molecular target: B. taurus (heart) complex I (Bos taurus, UniProt P03887+P17694+P42026); experiment: biochemical; type: biochemical; settings: Dose 3 µM; read-out: B. taurus mitochondrial complex I activity
Kind request: treat 70% as inclusive, so activity at 3 µM at 70% or higher is Fulfilled, anything lower is Not fulfilled.

INSERT INTO assay_data (compound, discretelabel) VALUES
  ('Cc1ccc(OCCn2cnc3ccccc32)cc1 [Compound 5671538]', 'Fulfilled'),
  ('CCc1cc(OCCn2cnc3ccccc32)ccc1Cl [Compound 7925288]', 'Not fulfilled'),
  ('Cc1cccc(OCCn2c(C)nc3ccccc32)c1 [Compound 6285199]', 'Not fulfilled'),
  ('Cc1ccccc1OCCCCn1cnc2ccccc21 [Compound 7732524]', 'Not fulfilled'),
  ('Cc1nc2ccccc2n1CCOc1ccccc1 [Compound 5550112]', 'Fulfilled'),
  ('Clc1ccc(Cn2cnc3ccccc32)cc1Cl [Compound 5571325]', 'Fulfilled'),
  ('CC(C)Oc1cccc(OCCn2cnc3ccccc32)c1 [Compound 7926496]', 'Not fulfilled'),
  ('Clc1ccc(OCCn2cnc3ccccc32)c(Cl)c1 [Compound 7221649]', 'Fulfilled'),
  ('Cc1ccc(C(C)C)c(OCC(O)Cn2cnc3ccccc32)c1 (centres unmarked) [Compound 6093301]', 'Not fulfilled'),
  ('Clc1ccc(Cn2cnc3ccccc32)c(Cl)c1 [Compound 6750659]', 'Not fulfilled'),
  ('CCCOc1ccc(Cn2cnc3ccccc32)cc1 [Compound 7355741]', 'Not fulfilled'),
  ('Clc1ccccc1OCCCCn1cnc2ccccc21 [Compound 7925804]', 'Not fulfilled'),
  ('Brc1ccccc1OCCCCn1cnc2ccccc21 [Compound 7924576]', 'Not fulfilled'),
  ('Clc1ccc(SCCCCn2cnc3ccccc32)cc1 [Compound 7925515]', 'Fulfilled'),
  ('FC(F)(F)c1cccc(OCCCCn2cnc3ccccc32)c1 [Compound 7925004]', 'Fulfilled'),
  ('Cc1nc2ccccc2n1CCOc1ccccc1Cl [Compound 5561642]', 'Not fulfilled'),
  ('Cc1nc2ccccc2n1Cc1ccc(Cl)c(Cl)c1 [Compound 5655567]', 'Not fulfilled'),
  ('Cc1ccc(SCCCn2cnc3ccccc32)cc1 [Compound 7926035]', 'Not fulfilled'),
  ('Nc1nc2ccccc2n1CCOc1ccc(Br)cc1 [Compound 5842535]', 'Not fulfilled'),
  ('Nc1nc2ccccc2n1Cc1ccc(Cl)cc1 [Compound 5652765]', 'Not fulfilled');

###

biological target: C. elegans (N2) complex I (NADH:ubiquinone oxidoreductase) (Caenorhabditis elegans, UniProt P24887+Q93873+Q94360); test: biochemical; type: biochemical; conditions: dose 75 µM; wild-type C. elegans; mean of replicates; read-out: in vitro complex I activity relative to solvent control, Mean
Sequence (Q94360 17-199): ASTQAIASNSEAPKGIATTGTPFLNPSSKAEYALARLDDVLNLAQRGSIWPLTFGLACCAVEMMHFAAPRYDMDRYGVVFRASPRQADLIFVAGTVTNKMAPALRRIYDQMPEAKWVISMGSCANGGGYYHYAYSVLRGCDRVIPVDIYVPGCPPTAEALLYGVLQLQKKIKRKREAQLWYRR
Sequence (P24887 whole entry): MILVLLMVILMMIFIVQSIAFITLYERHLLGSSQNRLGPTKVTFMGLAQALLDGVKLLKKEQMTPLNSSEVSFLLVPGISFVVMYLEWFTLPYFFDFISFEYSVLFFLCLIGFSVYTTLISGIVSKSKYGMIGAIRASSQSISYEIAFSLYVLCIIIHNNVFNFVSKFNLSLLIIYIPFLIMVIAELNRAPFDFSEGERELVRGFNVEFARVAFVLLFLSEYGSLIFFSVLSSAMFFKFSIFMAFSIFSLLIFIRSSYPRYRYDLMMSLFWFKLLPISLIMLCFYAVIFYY
Sequence (Q93873 31-482): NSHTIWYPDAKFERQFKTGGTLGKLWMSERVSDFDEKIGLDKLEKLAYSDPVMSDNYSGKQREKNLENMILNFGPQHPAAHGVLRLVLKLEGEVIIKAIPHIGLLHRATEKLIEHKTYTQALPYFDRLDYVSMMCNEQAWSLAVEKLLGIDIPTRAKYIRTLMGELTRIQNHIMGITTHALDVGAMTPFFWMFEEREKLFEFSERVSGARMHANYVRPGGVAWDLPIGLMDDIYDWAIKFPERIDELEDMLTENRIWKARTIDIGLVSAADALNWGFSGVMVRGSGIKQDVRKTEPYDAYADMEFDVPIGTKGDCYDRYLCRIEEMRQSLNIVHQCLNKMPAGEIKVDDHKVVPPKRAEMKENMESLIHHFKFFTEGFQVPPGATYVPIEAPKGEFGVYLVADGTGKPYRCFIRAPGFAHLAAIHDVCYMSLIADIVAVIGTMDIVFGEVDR
parameter: remaining activity at 75 µM (%)

INSERT INTO measurements (molecule, outputunit, experimentalresult) VALUES
  ('COC(=O)Nc1nc2ccc(Sc3ccccc3)cc2[nH]1 [fenbendazole, reference compound]', '%', 99.7),
  ('Cc1nc2ccccc2n1Cc1ccc(Cl)cc1', '%', 1.29),
  ('Cc1ccccc1OCCCCn1cnc2ccccc21', '%', 6.44),
  ('C=C(C)[C@H]1Cc2c(ccc3c2O[C@@H]2COc4cc(OC)c(OC)cc4[C@@H]2C3=O)O1 [Rotenone, reference compound]', '%', 3.64),
  ('CC(C)(C)c1ccc(CCOc2ncnc3ccccc23)cc1 [Fenazaquin, reference compound]', '%', 3.14);

###

molecular target: C. elegans (N2) complex I (NADH:ubiquinone oxidoreductase) (Caenorhabditis elegans, UniProt P24887+Q93873+Q94360); assay: biochemical; assay type: biochemical; details: dose 1.5 µM; wild-type C. elegans; mean of replicates; read-out: in vitro complex I activity relative to solvent control, Mean
Item-by-item account of remaining activity at 1.5 µM
parameter: remaining activity at 1.5 µM (%)

INSERT INTO results (molecule, parameter, outputunit, experimentalresult) VALUES
  ('CC(C)(C)c1ccc(CCOc2ncnc3ccccc23)cc1 [Fenazaquin, reference compound]', 'remaining activity at 1.5 µM', '%', 1.91),
  ('Cc1ccccc1OCCCCn1cnc2ccccc21 [Compound 7732524]', 'remaining activity at 1.5 µM', '%', 2.78),
  ('C=C(C)[C@H]1Cc2c(ccc3c2O[C@@H]2COc4cc(OC)c(OC)cc4[C@@H]2C3=O)O1 [Rotenone, reference compound]', 'remaining activity at 1.5 µM', '%', 7.71),
  ('Cc1nc2ccccc2n1Cc1ccc(Cl)cc1 [STK697993]', 'remaining activity at 1.5 µM', '%', 6.88),
  ('COC(=O)Nc1nc2ccc(Sc3ccccc3)cc2[nH]1 [fenbendazole, reference compound]', 'remaining activity at 1.5 µM', '%', 101);

###

Item-by-item account of activity at 0.625 µM
molecular target: B. taurus (heart) complex I (Bos taurus, UniProt P03887+P17694+P42026); experiment: biochemical; assay type: biochemical; conditions: B. taurus; dose 0.625 µM; Mean of replicates; read-out: Complex I activity, dose-response data
parameter: activity at 0.625 µM (%)

INSERT INTO measurements (molecule, parameter, experimentalresult) VALUES
  ('CC(C)Cc1ccc(C(C)c2nc3ccccc3n2C)cc1 (stereo not shown)', 'activity at 0.625 µM', 103),
  ('COc1cc2c(cc1OC)C(c1ccc(-c3ccc(Cl)c(Cl)c3)o1)=NCC2', 'activity at 0.625 µM', 99),
  ('COc1cc2c(cc1OC)C(/C=C/c1ccc(N(C)C)cc1)=NCC2', 'activity at 0.625 µM', 97.3),
  ('COc1cc2c(cc1OC)C(C(C)c1ccc(CC(C)C)cc1)=NCC2 (stereo not shown)', 'activity at 0.625 µM', 101);

###

biological target: B. taurus (heart) complex I (Bos taurus, UniProt P03887+P17694+P42026); assay: biochemical; format: biochemical; conditions: B. taurus; dose 0.013 µM; Mean of replicates; read-out: Complex I activity, dose-response data
Item-by-item account of activity at 0.013 µM
parameter: activity at 0.013 µM (%)

INSERT INTO assay_data (molecule, parameter, outputunit, experimentalresult) VALUES
  ('COc1cc2c(cc1OC)C(C(C)c1ccc(CC(C)C)cc1)=NCC2 (stereo not shown)', 'activity at 0.013 µM', '%', 101),
  ('CC(C)Cc1ccc(C(C)c2nc3ccccc3n2C)cc1 (stereo not shown)', 'activity at 0.013 µM', '%', 99.8),
  ('COc1cc2c(cc1OC)C(/C=C/c1ccc(N(C)C)cc1)=NCC2', 'activity at 0.013 µM', '%', 94.7),
  ('COc1cc2c(cc1OC)C(c1ccc(-c3ccc(Cl)c(Cl)c3)o1)=NCC2', 'activity at 0.013 µM', '%', 106);

###

tested on: L1 wild-type C. elegans; settings: N2 (wild type), caenorhabditis elegans
parameter: LC50

INSERT INTO assay_data (compound, parameter, experimentalresult) VALUES
  ('C=C(C)[C@H]1Cc2c(ccc3c2O[C@@H]2COc4cc(OC)c(OC)cc4[C@@H]2C3=O)O1 [Rotenone, reference compound]', 'LC50', '860 nM');

###

target: C. elegans (N2) complex I (NADH:ubiquinone oxidoreductase) (Caenorhabditis elegans, UniProt P24887+Q93873+Q94360); assay: biochemical; type: biochemical; details: 0.313 µM; wild-type C. elegans mitochondria; single replicate; read-out: percent (%) in vitro complex I activity relative to solvent control
parameter: remaining activity at 0.313 µM (%)

INSERT INTO measurements (compound, parameter, experimentalresult) VALUES
  ('COc1cc2c(cc1OC)C(C(C)c1ccc(CC(C)C)cc1)=NCC2 (stereo not drawn)', 'remaining activity at 0.313 µM', 88.6),
  ('COc1cc2c(cc1OC)C(/C=C/c1ccc(N(C)C)cc1)=NCC2', 'remaining activity at 0.313 µM', 83.6),
  ('COC(=O)Nc1nc2ccc(C(=O)c3ccccc3)cc2[nH]1 [mebendazole, reference compound]', 'remaining activity at 0.313 µM', 92.7),
  ('COC(=O)Nc1nc2ccc(Sc3ccccc3)cc2[nH]1 [fenbendazole, reference compound]', 'remaining activity at 0.313 µM', 101),
  ('COc1cc2c(cc1OC)C(c1ccc(-c3ccc(Cl)c(Cl)c3)o1)=NCC2', 'remaining activity at 0.313 µM', 92.5),
  ('COc1ccc(Cc2nccc3cc(OC)c(OC)cc23)cc1OC [Papaverine, reference compound]', 'remaining activity at 0.313 µM', 85.7);
